- target.or.system: Human Kv1.5 channels (Homo sapiens)
- procedure.text: Kv1.5 currents in Xenopus oocytes, two-microelectrode voltage clamp
- experimental.context: human Kv1.5 expressed in Xenopus laevis oocytes; voltage jumps 500 ms to 0 mV and 40 mV; room temperature; Hill equation
- Procedure: Human Kv1.5 channels were expressed in Xenopus oocytes. For this purpose, firstly ooytes were isolated from Xenopus laevis and were defolliculated. Kv1.5-encoding RNA which had been synthesized in vitro was then injected into these oocytes. After 1-7 days of Kv1.5 protein expression, the Kv1.5 currents were measured on the oocytes by the two-microelectrode voltage clamp technique. The Kv1.5 channels were for this purpose usually activated with voltage jumps lasting 500 ms to 0 mV and 40 mV. […]
# strict inequality: IC50 < 1000 nM yields T, everything else yields F

>>> print(df.to_string())
                                   compound  cat
0  Cc1ccc(S(=O)(=O)Nc2ccc(F)cc2C(=O)N(Cc2ccc(F)cc2)Cc2ccn[nH]2)cc1 [Example 108]    F
1  Cc1ccc(S(=O)(=O)Nc2ccccc2C(=O)N(Cc2ccccc2)Cc2cccnc2)cc1 [Example 79]    T
2  Cc1ccc(S(=O)(=O)Nc2ccccc2C(=O)N(Cc2ccccc2)Cc2nc3ccccc3[nH]2)cc1 [Example 35]    F
3  C[C@H](c1ccccc1)N(C)C(=O)c1ccccc1NS(=O)(=O)c1ccccc1 [Example 105]    F

* * *

- target.or.system: Human Kv1.5 channels (Homo sapiens)
- procedure.text: Kv1.5 currents in Xenopus oocytes, two-microelectrode voltage clamp
- experimental.context: human Kv1.5 expressed in Xenopus laevis oocytes; voltage jumps 500 ms to 0 mV and 40 mV; room temperature; Hill equation
outcome.measure: IC50 (nM)

>>> print(df.to_string())
                                   compound  observed_result
0  Cc1ccc(S(=O)(=O)Nc2ccccc2C(=O)N(Cc2ccccc2)Cc2nn(C)cc2Cl)cc1 [Example 89]             3200
1  CCC(NC(=O)c1cc(OC)ccc1NS(=O)(=O)c1ccc(C)cc1)c1ccncc1 (centres unmarked) [Example 53]             2500
2  COc1ccc(NS(=O)(=O)c2ccc(C)cc2)c(C(=O)NC(c2ccccc2)C2CC2)c1 (centres unmarked) [Example 93]             1100
3  Cc1ccc(S(=O)(=O)Nc2ccc(F)cc2C(=O)N(Cc2ccccc2)Cc2nccs2)cc1 [Example 110]             1000
4  COc1ccc([C@@H](C)NC(=O)c2cc(Cl)ccc2NS(=O)(=O)c2ccccc2)cc1 [Example 6]             8200
5  CCCCS(=O)(=O)Nc1ccc(C)cc1C(=O)NC1CCCCC1 [Example 54]             4000
6  CCCCS(=O)(=O)Nc1ccc(C)cc1C(=O)N[C@H](CC)c1ccccc1 [Example 114]             1400
7  CC[C@H](NC(=O)c1cc(F)ccc1NS(=O)(=O)c1ccc(Cl)cc1)c1ccccc1 [Example 106]             3800

* * *

- target.or.system: Human Kv1.5 channels (Homo sapiens, UniProt P22460)
- Sequence (P22460 whole entry): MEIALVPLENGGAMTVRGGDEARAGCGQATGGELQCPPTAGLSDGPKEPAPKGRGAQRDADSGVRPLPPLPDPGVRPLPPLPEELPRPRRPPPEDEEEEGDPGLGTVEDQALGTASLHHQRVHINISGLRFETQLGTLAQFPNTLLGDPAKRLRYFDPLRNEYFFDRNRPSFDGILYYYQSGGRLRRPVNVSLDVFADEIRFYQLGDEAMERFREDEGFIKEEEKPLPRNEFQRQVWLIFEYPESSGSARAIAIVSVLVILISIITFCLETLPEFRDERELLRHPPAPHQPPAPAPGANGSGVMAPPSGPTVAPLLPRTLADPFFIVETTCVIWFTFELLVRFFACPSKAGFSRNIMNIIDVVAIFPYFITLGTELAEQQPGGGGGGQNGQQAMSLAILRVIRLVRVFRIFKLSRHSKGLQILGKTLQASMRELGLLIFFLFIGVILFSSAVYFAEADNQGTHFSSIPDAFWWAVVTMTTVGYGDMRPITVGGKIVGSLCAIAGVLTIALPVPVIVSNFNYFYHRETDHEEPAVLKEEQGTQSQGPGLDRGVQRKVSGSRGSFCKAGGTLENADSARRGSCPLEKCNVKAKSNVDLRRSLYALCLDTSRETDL
- procedure.text: Kv1.5 currents in Xenopus oocytes, two-microelectrode voltage clamp
- experimental.context: human Kv1.5 expressed in Xenopus laevis oocytes; voltage jumps 500 ms to 0 mV and 40 mV; room temperature; Hill equation
- Procedure: Human Kv1.5 channels were expressed in Xenopus oocytes. For this purpose, firstly ooytes were isolated from Xenopus laevis and were defolliculated. Kv1.5-encoding RNA which had been synthesized in vitro was then injected into these oocytes. After 1-7 days of Kv1.5 protein expression, the Kv1.5 currents were measured on the oocytes by the two-microelectrode voltage clamp technique. The Kv1.5 channels were for this purpose usually activated with voltage jumps lasting 500 ms to 0 mV and 40 mV. […]
pIC50: −log10 of the molar value.
Listing of entries alongside the reported pIC50.
outcome.measure: pIC50

                                    molecule  rel  observed_result
 0  O=C(NC(c1ccccc1)C1CC1)c1ccccc1NS(=O)(=O)c1ccccc1 (centres unmarked)    =             6.00
 1  CCCS(=O)(=O)Nc1ccccc1C(=O)N[C@@H](CC)c1ccccc1    =             5.51
 2  Cc1ccc(S(=O)(=O)Nc2ccccc2C(=O)N(CCCn2ccnc2C)Cc2ccccc2)cc1    <             5.00
 3  COc1ccc(S(=O)(=O)Nc2cccc(C)c2C(=O)N(Cc2ccccc2)Cc2cccnc2)cc1    =             5.33
 4  CC[C@H](NC(=O)c1cc(OC)ccc1NS(=O)(=O)c1ccc(C)cc1)c1ccccc1    =             6.30
 5  CCN(C(=O)c1ccccc1NS(=O)(=O)c1ccc(C)cc1)C1CCCCC1    =             5.27
 6  Cc1ccc(S(=O)(=O)Nc2ccccc2C(=O)N(Cc2ccc(F)cc2)Cc2cccc(C)n2)cc1    =             5.62
 7  CCc1ccc(S(=O)(=O)Nc2ccccc2C(=O)N(Cc2ccccc2)Cc2cccnc2)cc1    =             5.30
 8  COc1ccc(NS(=O)(=O)c2ccc(C)cc2)c(C(=O)NC(c2ccccn2)C2CC2)c1 (centres unmarked)    =             6.00
 9  COc1ccc(S(=O)(=O)Nc2ccc(OC)cc2C(=O)NC(c2cccnc2)C2CC2)cc1 (centres unmarked)    =             6.05
10  CCCCS(=O)(=O)Nc1ccc(C)cc1C(=O)NC(CC)c1ccc(C)o1 (centres unmarked)    =             6.05
11  CCC(Cc1ccccn1)NC(=O)c1cc(OC)ccc1NS(=O)(=O)c1ccc(C)cc1 (centres unmarked)    =             6.15
12   CCCCS(=O)(=O)Nc1cc(C)ccc1C(=O)NC1CCCCC1    =             5.11
13  Cc1ccc(S(=O)(=O)Nc2ccccc2C(=O)N(Cc2ccncc2)CC2CC2)cc1    <             5.00
14  C[C@H](NC(=O)c1cc(Cl)ccc1NS(=O)(=O)c1ccccc1)c1ccccc1    =             5.26
15  CCCCS(=O)(=O)N(CC)c1ccccc1C(=O)N[C@@H](CC)c1ccccc1    =             5.30
16  CCN(C(=O)c1cc(Cl)ccc1NS(=O)(=O)c1ccc(C)cc1)C1CCCCC1    =             5.19
